System: SKOV3
Assay name: Anti-cancer activity against ovarian cancer cells SKOV3 (cell killing in solution / in vitro cell proliferation)
Format: cell-based
Test context: ovarian cancer cells SKOV3
Property label: IC50

- Compound: "CC(=O)OCCN(CCOC(C)=O)c1ccc(-c2nc3cc(C(CC(N)=O)NC(=O)[C@@H](N)Cc4ccc(Cl)c(Cl)c4)ccc3n2Cc2ccc(F)c(F)c2)cc1 (stereo partly shown)"
  Measured result: "18.7 µM"

---

Test system: 22RV1 prostate cancer cells
Assay name: Cell viability of prostate cancer 22RV1 cells after 72 hours treatment
Format: cell-based
Test context: Homo sapiens, 5 μM
Here, each record is paired with measured viability at 5 µM data.
Property label: viability at 5 µM (%)

- Compound: "NC(=O)CC(NCc1ccc(Cl)c(Cl)c1)c1ccc2c(c1)nc(-c1ccc(N(CCO)CCO)cc1)n2CCc1ccccn1 (stereo not shown)"
  Property label: "viability at 5 µM"
  Measured result: 100
- Compound: "NC(=O)CC(NCc1ccc(Cl)c(Cl)c1)c1ccc2c(c1)nc(-c1ccc(N(CCO)CCO)cc1)n2CC1CCCCC1 (stereo not shown)"
  Property label: "viability at 5 µM"
  Measured result: 31
- Compound: "NC(=O)CC(NCc1ccc(Cl)c(Cl)c1)c1ccc2c(c1)nc(-c1ccc(N(CCO)CCO)cc1)n2CCc1ccc(OC(F)(F)F)cc1 (stereo not shown)"
  Property label: "viability at 5 µM"
  Measured result: 28
- Compound: "NC(=O)CC(NCc1ccc(Cl)c(Cl)c1)c1ccc2c(c1)nc(-c1ccc(N(CCO)CCO)cc1)n2Cc1ccc2c(c1)OCO2 (stereo not shown)"
  Property label: "viability at 5 µM"
  Measured result: 2

---

Tested on: PC3 prostate cancer cells
Assay name: Cell viability of prostate cancer PC3 cells after 72 hours treatment
Type: cell-based
Test context: Homo sapiens, PC-3, 20 μM
Procedure: Effects of compounds LLS42-LLS80 on the viability of PC3 prostate cancer cells after 72 hours of treatment are shown in Table 2 below: […]

- Compound: "CC(=O)OCCN(CCOC(C)=O)c1ccc(-c2nc3cc(C(CC(N)=O)NCc4ccc(-c5ccn[nH]5)s4)ccc3n2CCCN(C)C)cc1 (stereo not shown) [LLS78]"
  viability at 20 µM (%): 100
- Compound: "NC(=O)CC(NCC1CCCCC1)c1ccc2c(c1)nc(-c1ccc(N(CCO)CCO)cc1)n2Cc1ccc(C(F)(F)F)cc1 (stereo not shown) [LLS71]"
  viability at 20 µM (%): 3
- Compound: "NCCCn1c(-c2ccc(N(CCO)CCO)cc2)nc2cc(C(CC(N)=O)NCc3ccc(C4CC=NN4)s3)ccc21 (stereo not shown) [LLS54]"
  viability at 20 µM (%): 87
- Compound: "COc1ccc(CCn2c(-c3ccc(N(CCO)CCO)cc3)nc3cc(C(CC(N)=O)NCC4CCCCC4)ccc32)cc1 (stereo not shown) [LLS56]"
  viability at 20 µM (%): 93
- Compound: "COc1cc(CNC(CC(N)=O)c2ccc3c(c2)nc(-c2ccc(N(CCO)CCOC(C)=O)cc2)n3C(C)C)cc(Br)c1OC (stereo not shown) [LLS43]"
  viability at 20 µM (%): 105
- Compound: "NC(=O)CC(NCC1CCCCC1)c1ccc2c(c1)nc(-c1ccc(N3CCOCC3)cc1)n2Cc1ccc(OC(F)(F)F)cc1 (stereo not shown) [LLS80]"
  viability at 20 µM (%): 0
- Compound: "CN1CCN(c2ccc(-c3nc4cc(C(CC(N)=O)NCc5ccc(Cl)c(Cl)c5)ccc4n3Cc3ccc(C(F)(F)F)cc3)cc2)CC1 (stereo not shown) [LLS64]"
  viability at 20 µM (%): 3
